Target: T1, human plasma kallikrein (PKal) (human, UniProt P03952 20-638)
T1 construct: Active PKal is cleaved at the marked R/I site into two disulfide-linked chains; also called human Pkal; active PKal
T1 sequence (P03952 20-638 limits assumed): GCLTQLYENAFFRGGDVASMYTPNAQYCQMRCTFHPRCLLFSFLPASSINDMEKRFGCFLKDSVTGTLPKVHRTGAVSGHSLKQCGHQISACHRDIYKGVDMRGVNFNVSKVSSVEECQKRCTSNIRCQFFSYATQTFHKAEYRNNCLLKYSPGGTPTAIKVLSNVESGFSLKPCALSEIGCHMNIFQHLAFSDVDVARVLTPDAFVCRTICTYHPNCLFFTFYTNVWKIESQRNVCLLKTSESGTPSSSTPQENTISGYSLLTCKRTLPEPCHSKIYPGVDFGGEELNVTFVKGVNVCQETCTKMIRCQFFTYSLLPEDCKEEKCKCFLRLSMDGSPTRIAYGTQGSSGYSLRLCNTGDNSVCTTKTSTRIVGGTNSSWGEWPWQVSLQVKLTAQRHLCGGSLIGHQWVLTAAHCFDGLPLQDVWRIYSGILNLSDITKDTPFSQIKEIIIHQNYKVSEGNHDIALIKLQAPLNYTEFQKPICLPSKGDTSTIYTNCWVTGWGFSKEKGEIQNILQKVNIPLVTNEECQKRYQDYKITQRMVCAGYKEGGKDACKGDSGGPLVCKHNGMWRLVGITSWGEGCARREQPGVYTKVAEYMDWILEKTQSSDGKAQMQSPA
Assay: Ki,app; Fab inhibition of PKal cleavage of a substrate peptide, Morrison fit
// values below are reported Ki
attribute-measured: Ki (nM)

>  <binder>
M0199-B01 (Fab, V domains shown) VH: EVQLLESGGGLVQPGGSLRLSCAASGFTFSHYIMMWVRQAPGKGLEWVSGIYSSGGITVYADSVKGRFTISRDNSKNTLYLQMNSLRAEDTAVYYCAYRRTGIPRRDAFDNWGQGTMVTVSS VL: DIQMTQSPSTLSASVGDRVTITCRASQSISSWLAWYQQKPGKAPNLLIYKASTLESGVPSRFSGSGSGTEFTLTISSLQPDDFATYYCQQYNTYWTFGQGTKVEIK

>  <attribute-measured>
Ki

>  <result-number>
1.6

$$$$
>  <binder>
M0200-A10 (Fab, V domains shown, HC CDR3 variant of M0162-A04, tested as Fab) VH: EVQLLESGGGLVQPGGSLRLSCAASGFTFSHYIMMWVRQAPGKGLEWVSGIYSSGGITVYADSVKGRFTISRDNSKNTLYLQMNSLRAEDTAVYYCAYRRTGVPRRDSFDIWGQGTMVTVSS VL: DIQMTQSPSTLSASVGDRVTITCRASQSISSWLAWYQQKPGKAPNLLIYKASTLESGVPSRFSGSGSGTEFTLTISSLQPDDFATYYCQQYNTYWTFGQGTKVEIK

>  <attribute-measured>
Ki

>  <result-number>
0.25

$$$$
>  <binder>
M0202-C02 (Fab, V domains shown) VH: EVQLLESGGGLVQPGGSLRLSCAASGFTFSHYIMMWVRQAPGKGLEWVSGIYSSGGITVYADSVKGRFTISRDNSKNTLYLQMNSLRAEDTAVYYCAYRRPGVPRRDAFDIWGQGTMVTVSS VL: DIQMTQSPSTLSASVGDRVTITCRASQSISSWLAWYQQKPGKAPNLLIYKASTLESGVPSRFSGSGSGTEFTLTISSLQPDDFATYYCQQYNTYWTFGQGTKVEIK

>  <attribute-measured>
Ki

>  <result-number>
0.6

$$$$
>  <binder>
M0202-F06 (Fab, V domains shown, HC CDR3 variant of M0162-A04, tested as Fab) VH: EVQLLESGGGLVQPGGSLRLSCAASGFTFSHYIMMWVRQAPGKGLEWVSGIYSSGGITVYADSVKGRFTISRDNSKNTLYLQMNSLRAEDTAVYYCAYRRTGVPRWDAFDIWGQGTMVTVSS VL: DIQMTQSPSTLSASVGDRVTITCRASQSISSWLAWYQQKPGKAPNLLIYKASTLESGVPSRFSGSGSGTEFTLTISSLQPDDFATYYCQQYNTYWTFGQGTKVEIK

>  <attribute-measured>
Ki

>  <result-number>
0.33

$$$$
>  <binder>
M0200-D03 (Fab, V domains shown) VH: EVQLLESGGGLVQPGGSLRLSCAASGFTFSHYIMMWVRQAPGKGLEWVSGIYSSGGITVYADSVKGRFTISRDNSKNTLYLQMNSLRAEDTAVYYCAYRRIGVPRRDSFDMWGQGTMVTVSS VL: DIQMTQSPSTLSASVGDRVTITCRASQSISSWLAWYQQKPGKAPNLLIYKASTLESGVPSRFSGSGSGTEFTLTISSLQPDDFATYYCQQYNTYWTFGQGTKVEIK

>  <attribute-measured>
Ki

>  <result-number>
0.1

$$$$
>  <binder>
M0202-E06 (Fab, V domains shown) VH: EVQLLESGGGLVQPGGSLRLSCAASGFTFSHYIMMWVRQAPGKGLEWVSGIYSSGGITVYADSVKGRFTISRDNSKNTLYLQMNSLRAEDTAVYYCAYRRRGVPRRDDFDIWGQGTMVTVSS VL: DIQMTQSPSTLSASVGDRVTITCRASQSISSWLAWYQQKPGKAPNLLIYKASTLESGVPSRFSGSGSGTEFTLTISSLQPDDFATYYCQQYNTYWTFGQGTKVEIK

>  <attribute-measured>
Ki

>  <result-number>
0.06

$$$$
>  <binder>
X135-A01 (Fab, V domains shown) VH: EVQLLESGGGLVQPGGSLRLSCAASGFTFSHYIMMWVRQAPGKGLEWVSGIYSSGGITVYADSVKGRFTISRDNSKNTLYLQMNSLRAEDTAVYYCAYRRTGAPRRDAFDIWGQGTMVTVSS VL: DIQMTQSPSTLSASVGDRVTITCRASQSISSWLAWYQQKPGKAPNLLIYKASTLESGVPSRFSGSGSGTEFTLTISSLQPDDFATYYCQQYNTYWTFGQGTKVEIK

>  <attribute-measured>
Ki

>  <result-number>
248

$$$$
>  <binder>
M0199-All (Fab, V domains shown) VH: EVQLLESGGGLVQPGGSLRLSCAASGFTFSHYIMMWVRQAPGKGLEWVSGIYSSGGITVYADSVKGRFTISRDNSKNTLYLQMNSLRAEDTAVYYCAYRRRGIPRRDAFDIWGQGTMVTVSS VL: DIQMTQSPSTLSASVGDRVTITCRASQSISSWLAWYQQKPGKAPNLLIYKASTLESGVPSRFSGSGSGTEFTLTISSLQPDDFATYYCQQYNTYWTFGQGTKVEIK

>  <attribute-measured>
Ki

>  <result-number>
2

$$$$
>  <binder>
X133-G05 (Fab, V domains shown) VH: EVQLLESGGGLVQPGGSLRLSCAASGFTFSHYIMMWVRQAPGKGLEWVSGIYSSGGITVYADSVKGRFTISRDNSKNTLYLQMNSLRAEDTAVYYCAYRRTGSPRRDAFDIWGQGTMVTVSS VL: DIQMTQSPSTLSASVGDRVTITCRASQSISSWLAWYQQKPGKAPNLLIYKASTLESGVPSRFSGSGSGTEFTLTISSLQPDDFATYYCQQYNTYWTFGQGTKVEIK

>  <attribute-measured>
Ki

>  <result-number>
1410

$$$$
>  <binder>
X135-A03 (Fab, V domains shown, HC CDR3 variant of M0162-A04, tested as Fab) VH: EVQLLESGGGLVQPGGSLRLSCAASGFTFSHYIMMWVRQAPGKGLEWVSGIYSSGGITVYADSVKGRFTISRDNSKNTLYLQMNSLRAEDTAVYYCAYRRTGIPRRDEFDIWGQGTMVTVSS VL: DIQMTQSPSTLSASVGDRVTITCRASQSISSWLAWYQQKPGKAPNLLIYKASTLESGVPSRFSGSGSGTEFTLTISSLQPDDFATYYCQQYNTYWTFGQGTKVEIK

>  <attribute-measured>
Ki

>  <result-number>
1.1

$$$$
